# tested system: human DLL3 on DMS-153 cells (human) (UniProt Q9NYJ7)
# Sequence (Q9NYJ7 27-618 limits assumed): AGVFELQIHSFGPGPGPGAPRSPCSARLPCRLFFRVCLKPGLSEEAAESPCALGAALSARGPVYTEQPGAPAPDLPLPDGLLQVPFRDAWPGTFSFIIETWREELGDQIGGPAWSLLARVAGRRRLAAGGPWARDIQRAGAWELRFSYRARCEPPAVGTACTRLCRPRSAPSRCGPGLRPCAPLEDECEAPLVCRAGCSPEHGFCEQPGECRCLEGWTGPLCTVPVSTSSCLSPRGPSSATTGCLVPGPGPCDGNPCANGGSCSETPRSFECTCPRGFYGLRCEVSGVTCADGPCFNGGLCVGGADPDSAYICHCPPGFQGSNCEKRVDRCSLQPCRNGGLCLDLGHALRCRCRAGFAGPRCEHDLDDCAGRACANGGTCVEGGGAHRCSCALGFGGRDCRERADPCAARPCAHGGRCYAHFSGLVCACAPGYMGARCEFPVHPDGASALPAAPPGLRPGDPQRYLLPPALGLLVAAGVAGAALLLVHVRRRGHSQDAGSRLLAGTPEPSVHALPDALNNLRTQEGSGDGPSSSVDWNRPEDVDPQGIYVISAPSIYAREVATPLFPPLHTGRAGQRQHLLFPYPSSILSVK
# procedure summary: cell-based or functional assay
Assign DMS-153 TDCC EC50 (conditioned medium, human T cells) to each entry below.
Reply numerically in nM, unit not repeated.

## Input Indicate its recorded DMS-153 TDCC EC50 (conditioned medium, human T cells); the binder in question is anti-DLL3 trispecific protein, DLL3 binder 2E010 (protein, part only; not given: anti-CD3 and anti-albumin domains, part only) chain, part: EVQLVESGGGLVQPGGSLTLSCVASGSTSSINAMAWYRRAPGKQRELVAGISSDGSKVYADSVKGRFTISRDNAKNSVYLQMNSLRAEDTAVYYCYYFHTVSGSSMRYWGQGTLVTVSSGGGGSGGGSGGGGSGGGSHHHHHH
## Output 0.031

## Input Tell me its DMS-153 TDCC EC50 (conditioned medium, human T cells) given anti-DLL3 trispecific protein, DLL3 binder 1H012 (protein, part only; not given: CD3 binder and albumin binder, part only) chain, part: EVQLVESGGGLVQPGGSLTLSCVASGSTSSINAMGWYRRAPGKQRELVAGISSDGSKVYVDSVKGRFTISRDNAKNSVYLQMNSLRAEDTAVYYCYYFRTVSGSSMPYWGQGTLVTVSSGGGGSGGGSGGGGSGGGSHHHHHH as the entry.
## Output 0.028

## Input Write down DMS-153 TDCC EC50 (conditioned medium, human T cells) measured for item anti-DLL3 trispecific protein, DLL3 binder 1C03 (protein, part only; not given: CD3 fragment and albumin sdAb, part only) chain, part: EVQLVESGGGLVQPGGSLTLSCVASGSTSSINAMAWYRRAPGKQRELVAGISSDNSKVYADSVKGRFTISRDNAKNSVYLQMNSLRAEDTAVYYCYYFRTVGGSSMRYWGQGTLVTVSSGGGGSGGGSGGGGSGGGSHHHHHH
## Output 0.096

## Input Quick one: give measured DMS-153 TDCC EC50 (conditioned medium, human T cells) for anti-DLL3 trispecific protein, DLL3 binder 2H02 (protein, part only; not given: anti-CD3 fragment and anti-albumin domain, part only) chain, part: EVQLVESGGGLVQPGGSLTLSCVASGSTSSINAMAWYRRAPGKQRELAAGISSDGSKVYADSVKGRFTISRDNAKNSVYLQMNSLRAEDTAVYYCYYFHTVSGSSMRYWGQGTLVTVSSGGGGSGGGSGGGGSGGGSHHHHHH
## Output 0.031

## Input Tell us which DMS-153 TDCC EC50 (conditioned medium, human T cells) value is on record for anti-DLL3 trispecific protein, DLL3 binder 3D07 (protein, part only; not given: anti-CD3 and anti-albumin domains, part only) chain, part: EVQLVESGGGLVQPGGSLTLSCAASGSSVRFLSMAWYRQAPGKKRELVAGISADGSTDYIDSVKGRFTISRDNAKNSVYLQMNSLRAEDTAVYYCYAYSWTTRYTYWGQGTLVTVSSGGGGSGGGSGGGGSGGGSHHHHHH
## Output 0.061
